Data provenance is patent US20260139048A1.

This listing pairs binders with measured Top (RLU).
assay target: T1, TIGIT on TIGIT-over expressing NFAT-Luc/Jurkat effector cells (GenScript reporter cell line) (UniProt Q495A1 22-244, limits assumed)
T1 sequence (looked up): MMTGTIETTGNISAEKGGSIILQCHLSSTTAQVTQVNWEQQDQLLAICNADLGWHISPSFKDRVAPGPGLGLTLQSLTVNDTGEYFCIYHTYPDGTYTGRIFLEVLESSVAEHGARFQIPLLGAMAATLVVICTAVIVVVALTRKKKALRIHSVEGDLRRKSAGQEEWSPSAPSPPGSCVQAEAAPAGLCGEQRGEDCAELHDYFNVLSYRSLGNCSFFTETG
assay notes: cell-based or functional assay
Give the value in RLU but do not write RLU after it.

TIGIT-18 chimeric antibody (antibody, human IgG1, kappa, V domains shown, Full-length chimeric IgG1 kappa) VH: QVQLQQPGAELVRPGASVKLSCKASGYSFTSYWMNWVKQRPGQGHEWIGMIHLSNSETRLNQNFLDKATLTVDKSSSTVYLQLSSPTSEDSAVYYCARERDYYGSSYFDYWGQGTTLTVSS VL: DIVMTQSPASLVVSLGQRATISCRTSQSVSTSSYSYMHWYQQKPGQPPKLLIKNASNLESGVPARFSASGSGTDFTLNIHPVEEEDAATYYCQHSWEIPRTFGGGTKLEIKR: 50600

Below: the item to evaluate.
Problem: Recorded Top (RLU) for TIGIT-3 chimeric antibody (antibody, human IgG1, kappa, V domains shown, also called 3VH + 3VL) VH: EVQLVESGGGLVQPGGSLKLSCAASGFTFSSYGMSWVRQTPDKRLELVATIKSDGGSTNLPDSVKGRFTISRDNAKNTLHLQMSSLKSEDTAMYYCVRGYFDYWGQGTSVTVSS VL: DIVMTQSHKFMSTSVGDRVSITCKASQDVKTAVAWYQQKPGQSPKLLIYWSSTRHTGVPDRFTGSRSLTDHTLTISSVQAEDLALYYCQQYYSTPYTFGGGTKLELKR , please?
Result: 42800
